- Tested on: MS2 coat protein
- METHOD DESCRIPTION: apparent Kd, MS2 coat protein; higher = weaker binding; RNA-MaP array; FMN 200 µM where present
- CONDITION CONTEXT: designed as: ON switch for flavin mononucleotide; no ligand
So basically: apparent Kd at 300 nM or higher? That is 1. Lower than 300 nM? That is 0.

# count of solved cases: 2
                             sequence_input  classification
0  ACAUGAGGAUCACCCAUGUUGAAUUAGGAUAUUUGACUGCACAUGAGGUUCUCCCAUGUUCUACCGGAGAAGGGAUUAAUAAUU               1
1  GUCGGAAACGACAAAAGUAGCAUAGGAGAAGGCAUGUCAUAAGACAUGAGGAUCACCCAUGUCCGUGAGGAUAUCCUAUGCUAC               0

Task item: Confirm if apparent Kd reported for the sequence "UGGUACAUCGGAGGAUAUCAUGUAGAGACAUGAGGAUCACCCAUGUCGAUGGAGACAUCGGAGAUUGAGAAGGCCGAUGUACCU" is 300 nM or above.
Reply: 0

Task item: Decide: apparent Kd of "GACAUGAGGAUCACCCAUGUCCAUGCAAGAGUAGUUGAGACCAGAAGGACCGUGCGGAAUGCAGGGUAGGAUAUGGAGCCCUCA" >= 300 nM?
Reply: 0

Task item: Reported apparent Kd reaches at least 300 nM for "GUAGCAUAAUCAGGAUAUUCAGAGAAUAAAUAAACAUGAGGAUCACCCAUGUGGCGAAAGCCUAGGGAGAAGGGAUAAUGCUAC" ?
Reply: 0

Task item: I'd appreciate it if you could say whether "GCAGUAAAUAAAUGCACAUGAGGAUCACCCAUGUGGGAGGCACAGGAUAUCGUAUCAUAGUAGUACGAGAAGGGUGAUAAUCUC" has apparent Kd at least equal to 300 nM.
Reply: 1

Task item: Quick check: does "GCAGCGCUUGACAUGAGGAUCACCCAUGUUAGAUUGUUAUGUCAGGAUAUAGUCUAGAAACUAGACUAGAAGGGAUAUGCUGCU" have apparent Kd greater than or equal to 300 nM?
Reply: 0
